Each record here notes measured pEC50.
- study target: T1, Decoy c-Met (extracellular domain of human c-Met) (human, Glycoprotein. In cells it is cleaved by furin after residue 307 into disulfide-linked alpha and beta parts; written here as one chain.)
- T1 construct: construct after Basilico et al. 2008; also called Decoy Met; monomeric Decoy Met
- T1 chain: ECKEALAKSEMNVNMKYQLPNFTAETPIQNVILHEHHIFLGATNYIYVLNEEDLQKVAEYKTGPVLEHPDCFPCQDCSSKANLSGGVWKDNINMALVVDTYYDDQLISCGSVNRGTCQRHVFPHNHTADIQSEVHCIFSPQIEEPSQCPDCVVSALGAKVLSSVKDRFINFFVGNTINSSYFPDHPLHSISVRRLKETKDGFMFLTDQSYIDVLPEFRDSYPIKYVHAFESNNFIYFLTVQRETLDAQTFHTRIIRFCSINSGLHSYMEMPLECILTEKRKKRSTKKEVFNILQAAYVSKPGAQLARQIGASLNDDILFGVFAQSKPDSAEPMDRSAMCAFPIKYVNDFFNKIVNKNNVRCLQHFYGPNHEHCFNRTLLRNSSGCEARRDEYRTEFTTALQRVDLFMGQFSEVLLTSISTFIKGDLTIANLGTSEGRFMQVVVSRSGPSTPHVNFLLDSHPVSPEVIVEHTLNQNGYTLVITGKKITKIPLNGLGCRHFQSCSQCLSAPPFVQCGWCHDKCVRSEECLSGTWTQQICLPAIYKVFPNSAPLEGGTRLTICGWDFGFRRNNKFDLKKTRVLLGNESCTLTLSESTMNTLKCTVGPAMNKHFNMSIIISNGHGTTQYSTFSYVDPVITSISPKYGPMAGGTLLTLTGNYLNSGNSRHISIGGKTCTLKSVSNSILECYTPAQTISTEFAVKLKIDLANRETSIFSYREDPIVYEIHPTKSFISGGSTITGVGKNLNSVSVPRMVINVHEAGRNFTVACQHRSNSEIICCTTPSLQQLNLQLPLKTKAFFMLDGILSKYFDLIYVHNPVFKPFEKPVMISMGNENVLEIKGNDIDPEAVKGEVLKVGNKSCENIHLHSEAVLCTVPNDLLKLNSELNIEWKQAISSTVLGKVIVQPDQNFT
- procedure text: binding ELISA, human c-Met (Decoy)
Please express pEC50 as -log10 of the molar concentration.

Below: 2 binders and their reported pEC50.
binder	measured property	readout value
40B8 mAb (antibody, human IgG1, V domains shown, human IgG1 constant domains and human C kappa) VH: EVQLVQPGAELRNPGASVKVSCKASGYTFTNYVIDWVRQAPGQGLEWMGRIDPENGGTRYAQKFQGRVTFTADTSTSTAYVELSNLRSEDTAVYYCARLEDYELAYDYWGQGTQVTVSS VL: DIVMTQTPSSVTASAGEKVTINCKSSQSVLLSSNQKNYLAWYQQRLGQSPRLLIYWASTRESGVPDRFSGSGSTTDFTLTISSFQPEDAAVYYCQQGVSFPLTFGQGTKVELK	pEC50	9.85
13E6 mAb (antibody, human IgG1, V domains shown, human IgG1 constant domains and human C lambda) VH: QVQLQESGGDLVQPGGSLRLSCAASGFTFDDYVMNWVRQAPGKGLEWISAINWNGGSTYYAESMKGRFTISRDNAKNTLYLQMYSLQSDDTAVYYCVKDTVVSGNGYWGQGTQVTVSS VL: QSVLTQPPSVSGTLGKTVTISCAGTSSDIGDYNYVSWYQQLPGTAPKLLIYDVNKRASGIPDRFSGSKSGNTASLSISGLQSEDEADYYCASYRSRNDYAFGGGTKLTVL	pEC50	9.72

Consider the additional binder presented here.
stdin: Which measured pEC50 value corresponds to 36C4 mAb (antibody, human IgG1, V domains shown, human IgG1 constant domains and human C lambda) VH: QVQLVESGPGLVKPSQTLSLTCAVSGGSITTNYYYWSWIRQSPGKGLEWMGVIAYDGSTDYSPSLKSRTSISRDTSKNQFSLQLSSVTPEDTAVYYCARDVRVIATGWATANALDAWGQGTLVTVSS VL: QSVLTQPPSVSGSPGKTVTISCAGTSSDVGYGNYVSWYQQLPGTAPKLLIFAVSYRASGIPDRFSGSKSGNTAFLTISGLQSEDEADYYCASYRSSNNAAVFGGGTHLTVL ?
stdout: 9.89
